- study-target: T1, human ROR2 (receptor tyrosine kinase-like orphan receptor 2) (human, UniProt Q01974 34-403, limits assumed)
- T1 construct: Antigen of the ELISA, SPR and pH titration assays; also called hROR2
- T1 sequence (Q01974 34-403 limits assumed): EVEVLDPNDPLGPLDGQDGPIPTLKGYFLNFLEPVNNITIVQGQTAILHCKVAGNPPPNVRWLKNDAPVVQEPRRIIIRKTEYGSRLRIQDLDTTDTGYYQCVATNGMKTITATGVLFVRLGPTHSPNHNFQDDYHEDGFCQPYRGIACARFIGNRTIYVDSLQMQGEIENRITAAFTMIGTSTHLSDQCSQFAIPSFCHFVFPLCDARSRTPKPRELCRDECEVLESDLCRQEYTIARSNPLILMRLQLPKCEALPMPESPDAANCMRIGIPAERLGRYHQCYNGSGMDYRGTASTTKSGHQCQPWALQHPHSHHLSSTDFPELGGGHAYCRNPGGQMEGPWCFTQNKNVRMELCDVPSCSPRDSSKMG
- assay-info: affinity ELISA on human ROR2, pH 6.0
- Design: unit not given here
// label = satisfied if Affinity ELISA, pH 6.0 is not less than 1, otherwise not satisfied

Before answering, review these 6 worked examples.
HC-W112L (antibody, V domains shown, CPE single point mutant of parent VH 48.6-HC-WT) VH: EVQLQQSGPELVKPGASVKISCKTSGYTFTEYTMHWMKQSHRKSLEWIGGINTNNGGTGYNQKFKGKATLTVDKSSSTAYMELRSLTSEDSAVYFCARGSLYSYGNSYFDYLGQGTLVTVSS VL: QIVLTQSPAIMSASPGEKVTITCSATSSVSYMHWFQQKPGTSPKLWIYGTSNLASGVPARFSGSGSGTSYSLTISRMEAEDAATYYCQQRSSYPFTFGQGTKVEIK    satisfied
HC-M034E (antibody, V domains shown, CPE single point mutant of parent VH 48.6-HC-WT) VH: EVQLQQSGPELVKPGASVKISCKTSGYTFTEYTEHWMKQSHRKSLEWIGGINTNNGGTGYNQKFKGKATLTVDKSSSTAYMELRSLTSEDSAVYFCARGSLYSYGNSYFDYWGQGTLVTVSS VL: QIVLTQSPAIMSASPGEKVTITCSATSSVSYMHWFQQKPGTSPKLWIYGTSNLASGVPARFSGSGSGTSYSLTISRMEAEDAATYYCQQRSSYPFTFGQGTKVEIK    satisfied
HC-R098Q (antibody, V domains shown, CPE single point mutant of parent VH 48.6-HC-WT) VH: EVQLQQSGPELVKPGASVKISCKTSGYTFTEYTMHWMKQSHRKSLEWIGGINTNNGGTGYNQKFKGKATLTVDKSSSTAYMELRSLTSEDSAVYFCAQGSLYSYGNSYFDYWGQGTLVTVSS VL: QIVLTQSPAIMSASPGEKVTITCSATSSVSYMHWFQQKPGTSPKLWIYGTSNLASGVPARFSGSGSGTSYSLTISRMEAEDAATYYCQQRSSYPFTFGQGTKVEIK    not satisfied
HC-L101F (antibody, V domains shown, CPE single point mutant of parent VH 48.6-HC-WT) VH: EVQLQQSGPELVKPGASVKISCKTSGYTFTEYTMHWMKQSHRKSLEWIGGINTNNGGTGYNQKFKGKATLTVDKSSSTAYMELRSLTSEDSAVYFCARGSFYSYGNSYFDYWGQGTLVTVSS VL: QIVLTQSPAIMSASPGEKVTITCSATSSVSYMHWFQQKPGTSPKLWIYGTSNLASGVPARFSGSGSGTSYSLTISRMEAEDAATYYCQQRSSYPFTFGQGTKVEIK    satisfied
HC-M034D (antibody, V domains shown, CPE single point mutant of parent VH 48.6-HC-WT) VH: EVQLQQSGPELVKPGASVKISCKTSGYTFTEYTDHWMKQSHRKSLEWIGGINTNNGGTGYNQKFKGKATLTVDKSSSTAYMELRSLTSEDSAVYFCARGSLYSYGNSYFDYWGQGTLVTVSS VL: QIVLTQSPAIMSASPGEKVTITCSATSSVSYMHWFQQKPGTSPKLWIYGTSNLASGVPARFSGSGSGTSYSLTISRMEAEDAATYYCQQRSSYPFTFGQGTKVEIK    satisfied
HC-N052L (antibody, V domains shown, CPE single point mutant of parent VH 48.6-HC-WT) VH: EVQLQQSGPELVKPGASVKISCKTSGYTFTEYTMHWMKQSHRKSLEWIGGILTNNGGTGYNQKFKGKATLTVDKSSSTAYMELRSLTSEDSAVYFCARGSLYSYGNSYFDYWGQGTLVTVSS VL: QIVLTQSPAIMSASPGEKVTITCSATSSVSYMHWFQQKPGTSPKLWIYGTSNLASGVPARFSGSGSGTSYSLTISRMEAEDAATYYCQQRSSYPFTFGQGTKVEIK    not satisfied

Reported Affinity ELISA, pH 6.0 reaches at least 1 for HC-Y032D (antibody, V domains shown, CPE single point mutant of parent VH 48.6-HC-WT) VH: EVQLQQSGPELVKPGASVKISCKTSGYTFTEDTMHWMKQSHRKSLEWIGGINTNNGGTGYNQKFKGKATLTVDKSSSTAYMELRSLTSEDSAVYFCARGSLYSYGNSYFDYWGQGTLVTVSS VL: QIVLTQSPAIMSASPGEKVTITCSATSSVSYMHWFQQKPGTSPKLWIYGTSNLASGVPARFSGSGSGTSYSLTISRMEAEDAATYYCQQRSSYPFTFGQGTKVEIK ?
satisfied

Next up: HC-R098H (antibody, V domains shown, CPE single point mutant of parent VH 48.6-HC-WT) VH: EVQLQQSGPELVKPGASVKISCKTSGYTFTEYTMHWMKQSHRKSLEWIGGINTNNGGTGYNQKFKGKATLTVDKSSSTAYMELRSLTSEDSAVYFCAHGSLYSYGNSYFDYWGQGTLVTVSS VL: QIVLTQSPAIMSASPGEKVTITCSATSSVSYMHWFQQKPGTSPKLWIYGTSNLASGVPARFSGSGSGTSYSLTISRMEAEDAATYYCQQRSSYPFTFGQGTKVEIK
not satisfied

What about this binder? HC-A097S (antibody, V domains shown, CPE single point mutant of parent VH 48.6-HC-WT) VH: EVQLQQSGPELVKPGASVKISCKTSGYTFTEYTMHWMKQSHRKSLEWIGGINTNNGGTGYNQKFKGKATLTVDKSSSTAYMELRSLTSEDSAVYFCSRGSLYSYGNSYFDYWGQGTLVTVSS VL: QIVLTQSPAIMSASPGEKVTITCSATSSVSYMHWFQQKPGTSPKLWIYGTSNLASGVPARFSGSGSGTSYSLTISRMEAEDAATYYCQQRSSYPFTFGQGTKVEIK
satisfied
